- test.system: MC1-R (B-16 mouse melanoma cells) (Mus musculus)
- Construct: B-16 mouse melanoma cells (containing MC1-R); endogenous in cells; host or cells: B-16 mouse melanoma cells
- Sequence (Q01727 whole entry): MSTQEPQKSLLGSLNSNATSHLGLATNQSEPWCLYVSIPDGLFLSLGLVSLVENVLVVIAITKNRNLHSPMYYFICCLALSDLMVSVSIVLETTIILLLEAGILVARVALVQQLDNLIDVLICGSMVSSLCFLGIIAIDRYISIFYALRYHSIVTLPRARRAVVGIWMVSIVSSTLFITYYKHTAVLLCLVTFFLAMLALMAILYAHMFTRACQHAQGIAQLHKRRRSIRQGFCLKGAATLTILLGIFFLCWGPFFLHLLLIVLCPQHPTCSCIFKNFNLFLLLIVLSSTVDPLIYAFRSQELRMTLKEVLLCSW
- assay.protocol: Competitive inhibition binding assay, 125I-NDP-α-MSH, MC1-R
- experimental.conditions: 1 μM compound; inhibition of 125I-NDP-α-MSH binding; mean of triplicates; results less than 0% reported as 0%
- Experimental: The competitive inhibition binding assay was conducted using membranes prepared from hMC3-R, hMC4-R, hMC5-R, and B-16 mouse melanoma cells (containing MC1-R) using 0.4 nM ^125I-NDP-α-MSH (New England Nuclear, Boston, Mass., USA) in 50 mM HEPES buffer containing 1 mM MgCl2, 2 mM CaCl2, and 5 mM KCl, at pH 7.2. […]
Outcome label depends on Inhibition at 1 μM MC1-R relative to 20%: at/above gives criterion met, below gives criterion not met.

NCCCC[C@H]1C(=O)N2C(CC[C@@H]2COc2ccc3c(c2)CCCC3)N1C(=O)[C@@H](Cc1ccc(Cl)cc1)NC(=O)[C@@H](N)COCc1ccccc1 (stereo partly shown); criterion met
N=C(N)NCCCC[C@H]1C(=O)N(CCc2ccc3ccccc3c2)CCN1C(=O)[C@H](N)Cc1ccc(Cl)cc1Cl; criterion met
N[C@H](Cc1ccc(Cl)cc1Cl)C(=O)N1CCN(CCc2ccc3ccccc3c2)C(=O)[C@@H]1CCCCNC(=O)c1ccc(O)cc1; criterion not met
CCCCCCC(=O)N[C@@H](Cc1cnc[nH]1)C(=O)N[C@H](Cc1ccccc1)C(=O)N1C[C@H](OCc2ccccc2)C[C@H]1C(=O)NCCCN; criterion met
NCCCC[C@H]1C(=O)N2C(CC[C@@H]2COc2ccc3ccccc3c2)N1C(=O)[C@@H](Cc1ccccc1Cl)NC(=O)[C@@H](N)C1Cc2ccccc2C1 (stereo partly shown); criterion not met

hey, is Inhibition at 1 μM MC1-R for this one >= 20%? NCCCC[C@H]1C(=O)N2C(CC[C@@H]2COc2ccc3ccccc3c2)N1C(=O)[C@@H](Cc1ccccc1Cl)NC(=O)[C@@H](N)COCc1ccccc1 (stereo partly shown)
criterion met

hey, is Inhibition at 1 μM MC1-R for this one >= 20%? NCCCNC(=O)C1CC(OCc2ccccc2)CN1C(=O)C(Cc1ccccc1)NC(=O)C1NCCc2ccccc21 (stereo not shown) [Example 160]
criterion not met

hey, is Inhibition at 1 μM MC1-R for this one >= 20%? [2H]N1CCCC1C(=O)NC(Cc1ccccc1)C(=O)N1CC(OCc2ccccc2)CC1C(=O)NCCCN (stereo not shown)
criterion met

hey, is Inhibition at 1 μM MC1-R for this one >= 20%? "NCCCNC(=O)[C@@H]1C[C@@H](OCc2ccccc2)CN1C(=O)[C@@H](Cc1ccccc1)NC(=O)[C@H](N)C(c1ccccc1)c1ccccc1"
criterion not met

hey, is Inhibition at 1 μM MC1-R for this one >= 20%? "CCCCCCC(=O)N[C@@H](Cc1cnc[nH]1)C(=O)N[C@H](Cc1ccccc1)C(=O)N1C[C@H](OCc2ccccc2)C[C@H]1C(=O)NCCCNC(=N)N"
criterion met

hey, is Inhibition at 1 μM MC1-R for this one >= 20%? "NCCCNC(=O)[C@@H]1C[C@@H](OCc2ccccc2)CN1C(=O)[C@@H](Cc1ccccc1)NC(=O)C1(N)CCCCC1"
criterion not met

hey, is Inhibition at 1 μM MC1-R for this one >= 20%? CC(C)NC(=N)NCCCC1C(=O)N(CCc2ccc3ccccc3c2)CCN1C(=O)C(N)Cc1ccc(Cl)cc1Cl (stereo not shown)
criterion met
